The reported numbers originate from patent US20040097539A1.

Biological target: human COX-1 (Homo sapiens)
Sequence (P23219 24-599): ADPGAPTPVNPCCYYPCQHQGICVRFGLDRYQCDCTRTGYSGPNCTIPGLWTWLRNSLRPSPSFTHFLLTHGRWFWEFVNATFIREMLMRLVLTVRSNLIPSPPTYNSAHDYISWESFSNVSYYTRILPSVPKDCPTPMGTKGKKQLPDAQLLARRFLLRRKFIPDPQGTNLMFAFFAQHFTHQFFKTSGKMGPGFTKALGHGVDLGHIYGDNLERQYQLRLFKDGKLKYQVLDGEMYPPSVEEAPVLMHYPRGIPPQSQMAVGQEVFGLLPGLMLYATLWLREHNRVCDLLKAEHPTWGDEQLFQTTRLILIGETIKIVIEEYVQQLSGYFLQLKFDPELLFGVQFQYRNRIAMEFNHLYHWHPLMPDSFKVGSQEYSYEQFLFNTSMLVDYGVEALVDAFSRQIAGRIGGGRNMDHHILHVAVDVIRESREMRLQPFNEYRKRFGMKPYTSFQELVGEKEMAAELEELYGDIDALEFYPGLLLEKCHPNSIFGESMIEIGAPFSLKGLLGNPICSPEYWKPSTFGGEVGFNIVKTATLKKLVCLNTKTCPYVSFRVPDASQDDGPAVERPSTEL
Assay: COX-1 inhibiting activity (chemiluminescence, microsome fractions)
Settings: microsome fractions from COX-1 expressing Sf-21 cells, 37° C. 25 min preincubation, arachidonic acid
pIC50: −log10 of the molar value.
quantityMeasured: pIC50

In [3]: df
Out[3]:
                      structuresmilesstring  endpointvalue
0  Cc1nn(-c2ccccn2)c2[nH]c3cc(F)c(Cl)cc3c(=O)c12           6.58
1     O=c1c2cc(Cl)ccc2[nH]c2c1cnn2-c1ccccn1           6.22
2  Cc1nn(-c2ccccn2)c2[nH]c3ccc(C(F)(F)F)cc3c(=O)c12           6.35
3  Cc1nn(-c2ccccn2)c2[nH]c3cc(F)c(F)cc3c(=O)c12           6.28

###

Parameter pIC50: see the listing below.
Target: human COX-2 (Homo sapiens)
Sequence (P35354 18-604): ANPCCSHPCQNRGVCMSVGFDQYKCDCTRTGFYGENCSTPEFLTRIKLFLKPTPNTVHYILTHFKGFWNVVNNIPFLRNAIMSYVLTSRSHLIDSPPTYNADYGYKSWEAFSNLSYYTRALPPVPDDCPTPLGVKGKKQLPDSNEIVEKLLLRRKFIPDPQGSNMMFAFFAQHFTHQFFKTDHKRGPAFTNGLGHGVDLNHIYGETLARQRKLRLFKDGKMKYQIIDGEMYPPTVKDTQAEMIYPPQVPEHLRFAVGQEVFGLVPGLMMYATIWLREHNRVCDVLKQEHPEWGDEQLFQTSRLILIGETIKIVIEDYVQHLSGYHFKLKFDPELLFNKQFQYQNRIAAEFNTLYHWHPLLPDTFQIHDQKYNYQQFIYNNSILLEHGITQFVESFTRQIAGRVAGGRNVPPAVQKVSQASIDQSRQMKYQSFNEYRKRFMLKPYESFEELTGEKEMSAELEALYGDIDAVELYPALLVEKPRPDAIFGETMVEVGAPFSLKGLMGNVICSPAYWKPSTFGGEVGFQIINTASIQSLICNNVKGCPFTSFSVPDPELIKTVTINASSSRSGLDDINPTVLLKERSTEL
Assay: COX-2 inhibiting activity (chemiluminescence, microsome fractions)
Conditions: microsome fractions from COX-2 expressing Sf-21 cells, 37° C. 25 min preincubation, arachidonic acid
Experimental: A 1.8 kb DNA fragment containing human COX-2 cDNA (Proc. Natl. Acad. Sci. U.S.A., 89 (16), 7384-7388-(1992)) prepared by the PCR method was inserted into plasmid pFASTBAC1 (CIBCOBRAL) to obtain a plasmid pFBCOX2. Using the plasmid pFBCOX2 and BAC-TO-BAC Baculovirus Expression System (GIBCOBRAL), a virus stock BAC-COX2 of the recombinant baculovirus was prepared. […]
pIC50: −log10 of the molar value.
quantityMeasured: pIC50

>>> print(df.to_string())
                                   compound  quantitymeasured  endpointvalue
0  Cc1nn(-c2ccccn2)c2[nH]c3cc(F)c(Cl)cc3c(=O)c12 [Compound C]             pIC50           6.67
1  Cc1nn(-c2ccccn2)c2[nH]c3ccc(C(F)(F)F)cc3c(=O)c12 [Compound A]             pIC50           6.42
2  Cc1nn(-c2ccccn2)c2[nH]c3cc(F)c(F)cc3c(=O)c12 [Compound B]             pIC50           6.53
3  O=c1c2cc(Cl)ccc2[nH]c2c1cnn2-c1ccccn1 [Compound D]             pIC50           6.44
